- Tgt: T1, human CD123 Strep-II tagged Fc-fusion protein (human)
- T1 construct: also called human CD123-Fc; recombinant CD123
- Protocol summary: SPR Proteon XPR36, rat IgG captured, CD123-Fc analyte
Everything with kon lower than 200000 M⁻¹ s⁻¹ is Not fulfilled; everything else, including exactly 200000 M⁻¹ s⁻¹, is Fulfilled.

[
  {
    "Binder": "5A5-B4 anti-CD123 rat IgG (hybridoma supernatant) (antibody, V domains shown, rat IgG; also called BFX - 5A5) VH: QIQIVQSGSDVTSTCNGCGTCYFSGFSLSTTGICVSWIRQPSGKGQEWLADFCWDDGKGYNPSLKNRLSISKDTSNNQVFLKITSVDTADTATYYCARRRVYYGIYFDYWGQGVMVTVSS VL: DIVMTQSPALAVSPGERVSISCRASNSVSTRMHWYQQKPGQQPKLLIYGASNLESGVPARFSGSGSGTDFTLTIDPVEADDIATYFCQQSWNDPLTFGSGTKLEIK",
    "Qualitative label": "Not fulfilled"
  },
  {
    "Binder": "2F8-D6 anti-CD123 rat IgG (hybridoma supernatant) (antibody, V domains shown, rat IgG; also called BFX - 2F8) VH: QVQLKESGPGLVQPSQTLSLTCTVSGFSLTSYGVSWVRQPPGKGLEWIATISSAGSTYYDLVLKSRLSITRDTSKSQVFLKVHSLQTEDTAIYLCARDAPVFNYGSYNAMDSWGQGTSVTVSS VL: DIQMTQSPSFLSATVGDRVTINCKASQNINKYLNWYQQKLGEAPKRLIYNTNSLQTGIPSRFSGSGSGTDYTLTISSLQPEDVATYFCLQHKSGLTFGSGTKLEIK",
    "Qualitative label": "Not fulfilled"
  },
  {
    "Binder": "6B10-E4 anti-CD123 rat IgG (hybridoma supernatant) (antibody, V domains shown, rat IgG; also called BFX - 6B10) VH: EVQLVESGGGLVQPGRSLKLSCAASGFTFSHYNMAWVRQAPKKGLEWVATITYDDHSTYYRDSVKGRFTISRDTAKSTLYLQMDSLRSEDTATYYCARLVNYAFAYWGQGTLVTVSS VL: NIVMTQSPKSMSISVGDRVTMNCKASQTVGNNIAWYQQKPGLSPQLLIDYASNRYTGVPNRFTGGGYGTDFILTINSVQAEDAAFYYCQRMYNSPTFGGGTKLELK",
    "Qualitative label": "Fulfilled"
  },
  {
    "Binder": "9B8-G6 anti-CD123 rat IgG (hybridoma supernatant) (antibody, V domains shown, rat IgG; also called BFX - 9B8) VH: EVKLQESGPSLVQSSQTLSLTCTVSGFSLTSYHIHWVRQPPGKGLEWMGVMWSDGDTSYSSALKSRLSISRDTSQSQVFLKMNSLQTEDTATYYCARGDYSSYIYLWFAYWGQGTLVTVSS VL: DIVMTQSPSSLAVSAGETVTINCKSSQSFLSSGDERNYVAWYQHKPGQSPKLLIYWASTRHSGVPDRFIGSGSGTDFTLTISSVQAEDLAIYYCQQYYDTPLTFGSGTKLEIK",
    "Qualitative label": "Fulfilled"
  },
  {
    "Binder": "3E3-D3 anti-CD123 rat IgG (hybridoma supernatant) (antibody, V domains shown, rat IgG; also called BFX - 3E3) VH: QVQLQESGPGLVQPSQTLSLTCTVSGFSLTTYDVHWVRQPPGKGLEWMGRIQNGGITDYNSALKSRLIISRDTSKSQVFLKMNSVQTEDTAMYFCAKTGSYFYAFDHWGQGTLVTVSS VL: QFVLTQPNSVSTNLGSTVKLSCKRNTGNIGSNYVNWYQQHEGRSPTTMIYRDDKRPDGVPDRFSGSIDRSSNSALLTINNVQTEDEADYFCQSYSSGINIIFGGGTKLTVL",
    "Qualitative label": "Not fulfilled"
  },
  {
    "Binder": "9F6-G3 anti-CD123 rat IgG (hybridoma supernatant) (antibody, V domains shown, rat IgG; also called BFX - 9F6) VH: QVQLQESGPTLVKPGDSVKMSCKASGYTFTDYIIHWVKQSHGKSLEWIGYINPYSDGTNYNEKFKSKATLTVDKSTSTAYMEFSRLTSEDSAIYFCALNYGSYYAMDAWGQGTSVTVSS VL: DIQMTQSPASLSASLGETVTIECRPSEDIHSNVAWYQQKPGNSPQLLIYDASNLADGVPSRFSGSGSGTQYSLKINSLQSEDVASYFCHQYNIYPYTFGSGTKLELK",
    "Qualitative label": "Not fulfilled"
  },
  {
    "Binder": "1E1-G5 anti-CD123 rat IgG (hybridoma supernatant) (antibody, V domains shown, rat IgG; also called BFX - 1E1) VH: QVQLQESGPTLVKPGDSVKMSCKAFGYTFTDHIIHWVKQSHGKSLEWIGYINPYSGGTNYNEKFKSKATLTVDKSSSTAYMEFSRLTSEDSAICYCALNYGSYYAMDAWGQGTSVTVSS VL: DIQMTQSPASLSASLGQTVTIECRPSEDIYSNLAWFQQKPGSSPQLLIYDANNLADGVPSRFSGSGSGTQYSLKINSLQSEDVASYFCQQYNKYPYTFGTGTKLELK",
    "Qualitative label": "Fulfilled"
  },
  {
    "Binder": "9D7-C8 anti-CD123 rat IgG (hybridoma supernatant) (antibody, V domains shown, rat IgG; also called BFX - 9D7) VH: EVKLQESGPSLVQSSQTLSLTCTVSGFSLTSYHIHWVRQTPGKGLEWMGVMWSDGDTSYNSALKSRLSISRDTSQSQVFLKMNSLQTEDTATYYCARGYYSSYLYLWFAYWGQGTLVTVSS VL: DIVMTQSPSSLAVSEGETVTINCKSSQSFLSSGDGKNYVAWYQYKPGQSPKLLIYWASTRQSGVPDRFIGSGSGTDFTLTISTVQAEDLAIYYCQQYYDTPLTFGSGTKLEIK",
    "Qualitative label": "Fulfilled"
  }
]
